Please respond with reported normalized growth for every item in the list.
experiment-notes: chemical genetic growth profiling, strain panel (AID 1159580);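 also: tested at 20 µM; growth read once vehicle control cultures reached saturation at 30 °C; 1 = growth at the plate median or of vehicle wells; lower values mean less growth of the strain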
run-conditions: S. cerevisiae deletion strains, growth OD, locus YDL101C, strain DUN1, hits give low values
Among all 5,500 compounds or so, about 2,000 (36%) were called active. Another 18% or so got no clear call; they are omitted. The list shows a part of the results.

Look up and report measured normalized growth for this entry: CCCCOC(=O)c1ccccc1C(=O)OCCCC
0.986 (inactive)

Answer with reported normalized growth of CCOC(=O)[C@H](CCc1ccccc1)N[C@@H](C)C(=O)N1[C@H](C(=O)O)C[C@@H]2CCC[C@@H]21
1.01 (inactive)

Check the records and state normalized growth for CCCCOC(=O)c1ccc(N)cc1
0.975 (inactive)

Complete the entry with normalized growth for CC1(C)C2(Cl)C(Cl)C(Cl)C(Cl)(C(Cl)Cl)C1(Cl)C2Cl (centres undefined)
0.982 (inactive)

Numbers sourced from PubChem BioAssay AID1159580.
